src = the supplement of paper PMC10567573

B1: DLC1 (parent)
chain: AIQGISEKEKAEIEAKEACDWLRA

# Variants of: B1
# methodNotes: protein stability index of a GFP-peptide fusion (GPS, HEK-293T) (PSI 1-6); higher = more stable;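 further: lentivirally expressed fusions sorted by FACS into six bins by GFP to DsRed ratio, PSI derived from sequencing read proportions per bin multiplied by bin number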
# cond: c terminus: a fixed tail appended
The entries below are paired with their reported protein stability index.
Just the number, please, no unit attached.

Some solved entries appear below for comparison.
{"polymerSequence": "AIQGISEKEKAEHEAKEACDWLRA [I13H]", "protein stability index": 4.88}
{"polymerSequence": "AIQGISEKPKAEIEAKEACDWLRA [E9P]", "protein stability index": 4.08}
{"polymerSequence": "AIQGISEKEKAEIEAKEDCDWLRA [A18D]", "protein stability index": 4.89}
{"polymerSequence": "AIQIISEKEKAEIEAKEACDWLRA [G4I]", "protein stability index": 3.15}
{"polymerSequence": "AIQGISQKEKAEIEAKEACDWLRA [E7Q]", "protein stability index": 4.06}
{"polymerSequence": "AIQGISEKDKAEIEAKEACDWLRA [E9D]", "protein stability index": 4.2}

Problem: Which protein stability index is reported for this variant? AIQGISEKEKAEIEAKEAADWLRA [C19A]
Solution: 4.79

Problem: What would you report for AIQGISEKEKAEIEAKESCDWLRA [A18S] ?
Solution: 4.31

Problem: What would you report for WIQGISEKEKAEIEAKEACDWLRA [A1W] ?
Solution: 3.23

Problem: What would you report for AIQGISEKEKFEIEAKEACDWLRA [A11F] ?
Solution: 3.64

Problem: What would you report for AIQGISEKEKAEIEAKEACDWLAA [R23A] ?
Solution: 4.67
